The measurements presented in this section are drawn from patent US20150208658A1.

System: Diabrotica balteata
test_description: Diabrotica balteata (Banded Cucumber Beetle): treated corn seeds sown in soil pots, seedlings infested with 3rd stage larvae
Assay type: in vivo
condition_label: seed treatment, application rate 0.3 mg/seed, 6 days incubation
Experimental: Diabrotica balteata (Banded Cucumber Beetle) Treated corn seeds are sown in a 350 ml pot filled with soil. Two weeks after sowing phytotoxicity (lack of shoot—missing emergence) in comparison to the control is estimated and expressed in percentage. Furthermore, corn seedlings are infested with 3rd stage larvae of Diabrotica balteata. After an incubation period of 6 days survived larvae are counted and larval growth is assessed. […]
Quick reference: % larval mortality of the listed items.
Be sure to follow the number with its unit.

| compound | tgt | % larval mortality |
| --- | --- | --- |
| C[C@H](NC(=O)C1CC1)c1ccc(C2(C(F)(F)F)CN=C(c3cc(Cl)c(Cl)c(Cl)c3)C2)cc1 (some centres unmarked) | Diabrotica balteata | 80% |
| CCC(=O)NC1CCc2cc(C3=NOC(c4cc(Cl)cc(Cl)c4)(C(F)(F)F)C3)ccc21 (centres unmarked) [Compound E1] | Diabrotica balteata | 83% |
| N#Cc1cc(C2=NCC(c3cc(Cl)c(Cl)c(Cl)c3)(C(F)(F)F)C2)ccc1-n1cncn1 (centres unmarked) | Diabrotica balteata | 44% |
| C[C@H](NC(=O)C1CC1)c1ccc(N2CCC(c3cc(C(F)(F)F)cc(C(F)(F)F)c3)(C(F)(F)F)C2)cc1 (some centres unmarked) | Diabrotica balteata | 78% |

Query compound follows.
Param item = O=C(CC(F)(F)F)NC1CCc2cc(C3=NOC(c4cc(Cl)cc(Cl)c4)(C(F)(F)F)C3)ccc21 (centres unmarked) ; retrieve measured % larval mortality.
60%
